Listing: MIC of selected molecules
tested on: Staphylococcus aureus; experiment: Antimicrobial activity against Staphylococcus aureus harboring GyrB T173N mutant assessed as growth inhibition; type: functional
// return numeric value only (unit: µg/mL, not printed)

Solved entries (count: 5):
- molecule: "CCNC(=O)Nc1nc2cc(-c3cnc(CO)nc3)cc(-c3ccccn3)c2s1"
  endpoint-value: 0.25
- molecule: "CCNC(=O)Nc1nc2cc(-c3cnc([C@@H](O)[C@H](O)C(F)F)nc3)cc(-c3ccccn3)c2s1 (racemic)"
  endpoint-value: 0.5
- molecule: "CCNC(=O)Nc1nc2cc(-c3cnc([C@@H](O)[C@@H](C)O)nc3)cc(-c3ccccn3)c2s1 (racemic)"
  endpoint-value: 1
- molecule: "CCNC(=O)Nc1nc2cc(-c3cnc([C@@H](O)[C@@H](O)C(F)(F)F)nc3)cc(-c3ccccn3)c2s1 (racemic)"
  endpoint-value: 0.5
- molecule: "CCNC(=O)Nc1nc2cc(-c3cnc(C(O)CN4CCOCC4)nc3)cc(-c3ccccn3)c2s1 (racemic)"
  endpoint-value: 1

Now for the molecule whose MIC we want.
Which measured MIC value corresponds to CCNC(=O)Nc1nc2cc(-c3cnc(C(O)CO)nc3)cc(-c3ccccn3)c2s1 (racemic) ?
2

====

MIC reference
test system: Streptococcus pyogenes; experiment: Antimicrobial activity against Streptococcus pyogenes harboring ParE A53S mutant assessed as growth inhibition; type: functional
A number alone suffices; assume µg/mL.

Fill blank: measured MIC of the molecule CCNC(=O)Nc1nc2cc(-c3cnc(C4(O)CCOCC4)nc3)cc(-c3ccccn3)c2s1 is ____.
2

Continue with CCNC(=O)Nc1nc2cc(-c3cnc(CO)nc3)cc(-c3ccccn3)c2s1
0.5

Try the molecule CCNC(=O)Nc1nc2cc(-c3cnc([C@@H](O)[C@@H](O)C(F)(F)F)nc3)cc(-c3ccccn3)c2s1 (racemic)
1

Param item: CCNC(=O)Nc1nc2cc(-c3cnc(C(C)(O)CO)nc3)cc(-c3ccccn3)c2s1 (racemic)
2

Repeat for the following molecule: CCNC(=O)Nc1nc2cc(-c3cnc(C(O)C(C)(C)C)nc3)cc(-c3ccccn3)c2s1 (racemic)
2

# iterate: CCNC(=O)Nc1nc2cc(-c3cnc(C4(O)CCN(C)CC4)nc3)cc(-c3ccccn3)c2s1
8

Now consider CCNC(=O)Nc1nc2cc(-c3cnc(C4(O)CCS(=O)(=O)CC4)nc3)cc(-c3ccccn3)c2s1 and answer again.
2

Okay, and CCNC(=O)Nc1nc2cc(-c3cnc(C(O)CO)nc3)cc(-c3ccccn3)c2s1 (racemic) ?
2

Subsequent entry: CCNC(=O)Nc1nc2cc(-c3cnc(C4(O)CCSCC4)nc3)cc(-c3ccccn3)c2s1
4

====

tested on: Haemophilus influenzae; experiment: Antibacterial activity against Haemophilus influenzae 49247 assessed as growth inhibition; format: functional
Entries whose MIC is below 2 µg/mL take 1 (yes); entries at or above 2 µg/mL take 0 (no).

Example results:
- molecule: "CCCC(O)c1ncc(-c2cc(-c3ccccn3)c3sc(NC(=O)NCC)nc3c2)cn1 (racemic)"
  tgt: "Haemophilus influenzae"
  assigned-category: "1 (yes)"
- molecule: "CCNC(=O)Nc1nc2cc(-c3cnc(N4CCC(CC)(C(=O)O)CC4)nc3)cc(-c3ccccn3)c2s1"
  tgt: "Haemophilus influenzae"
  assigned-category: "0 (no)"
- molecule: "CCNC(=O)Nc1nc2cc(-c3cnc(C(C)(C)O)nc3)cc(-c3cc(CN4CCCC4)ccn3)c2s1"
  tgt: "Haemophilus influenzae"
  assigned-category: "0 (no)"
- molecule: "CCNC(=O)Nc1nc2cc(-c3cnc(C4(O)CNC4)nc3)cc(-c3ccccn3)c2s1"
  tgt: "Haemophilus influenzae"
  assigned-category: "0 (no)"
- molecule: "CCNC(=O)Nc1nc2cc(-c3cnc(C4(O)COC4)nc3)cc(-c3ccccn3)c2s1"
  tgt: "Haemophilus influenzae"
  assigned-category: "1 (yes)"
- molecule: "CCNC(=O)Nc1nc2cc(-c3cnc([C@@H](O)[C@H](O)C(F)F)nc3)cc(-c3ccccn3)c2s1 (racemic)"
  tgt: "Haemophilus influenzae"
  assigned-category: "1 (yes)"
- molecule: "CCNC(=O)Nc1nc2cc(-c3cnc(C4(O)CCNCC4)nc3)cc(-c3ccccn3)c2s1"
  tgt: "Haemophilus influenzae"
  assigned-category: "0 (no)"
- molecule: "CCNC(=O)Nc1nc2cc(-c3cnc(C4(O)CCS(=O)(=O)CC4)nc3)cc(-c3ccccn3)c2s1"
  tgt: "Haemophilus influenzae"
  assigned-category: "1 (yes)"
- molecule: "CCNC(=O)Nc1nc2cc(-c3cnc(C(C)O)nc3)cc(-c3ccccn3)c2s1 (stereo not drawn)"
  tgt: "Haemophilus influenzae"
  assigned-category: "1 (yes)"
- molecule: "CCNC(=O)Nc1nc2cc(-c3cnc(C(C)(C)O)nc3)cc(-c3cc(CN4CC[C@@H](F)C4)ccn3)c2s1"
  tgt: "Haemophilus influenzae"
  assigned-category: "1 (yes)"

# check: MIC < 2 µg/mL for CCNC(=O)Nc1nc2cc(-c3cnc(CO)nc3)cc(-c3ccccn3)c2s1
1 (yes)

Proceed to CCNC(=O)Nc1nc2cc(-c3cnc(C(O)C4CC4)nc3)cc(-c3ccccn3)c2s1 (racemic)
1 (yes)

Let us now turn to CCNC(=O)Nc1nc2cc(-c3cnc(C(O)(CC)CC)nc3)cc(-c3ccccn3)c2s1
0 (no)

====

// fraction unbound lookup, one value per entry
assay: Fraction unbound in mouse plasma by ultracentrifugation; type: ADME, cell-free
Field format: numeric only.

Entry under review: CCNC(=O)Nc1nc2cc(-c3cnc(C(C)(C)O)nc3)cc(-c3cc(CN4CC[C@@H](F)C4)ccn3)c2s1 . Reported fraction unbound?
0.063

Follow-up entry: CCNC(=O)Nc1nc2cc(-c3cnc(C(C)(C)O)nc3)cc(-c3cc(CN4CC[C@@H](OC)C4)ccn3)c2s1
0.09

Try CCNC(=O)Nc1nc2cc(-c3cnc(C(C)(C)O)nc3)cc(-c3cc(CN4CC[C@@H](O)C4)ccn3)c2s1 next.
0.194

What about CCNC(=O)Nc1nc2cc(-c3cnc(C(C)(C)O)nc3)cc(-c3cc(CNC4CC4)ccn3)c2s1 ?
0.056

====

tested on: Staphylococcus aureus; assay: Antibacterial activity against Staphylococcus aureus ATCC 29213 assessed as growth inhibition; assay type: functional
metric: MIC (µg/mL)
Field: numeric (µg/mL). Do not append units.

- molecule: "CCNC(=O)Nc1nc2cc(-c3cnc([C@@H](O)[C@@H](C)O)nc3)cc(-c3ccccn3)c2s1 (racemic)"
  endpoint-value: 0.25

Give MIC (Staphylococcus aureus) of the following molecule: CCNC(=O)Nc1nc2cc(-c3cnc([C@@H](O)[C@H](O)C(F)F)nc3)cc(-c3ccccn3)c2s1 (racemic)
0.06

Follow-up entry: CCNC(=O)Nc1nc2cc(-c3cnc(C4(O)CCNCC4)nc3)cc(-c3ccccn3)c2s1
8

Query CCNC(=O)Nc1nc2cc(-c3cnc(C(C)(C)O)nc3)cc(-c3cc(CN4CC(C)(O)C4)ccn3)c2s1 next
0.5

====

system: Staphylococcus aureus; test: Antibacterial activity against Staphylococcus aureus ATCC 29213 assessed as growth inhibition; format: functional
Entries and their measured MIC follow.

Use these answered entries as a reference point.
- compound: "CCNC(=O)Nc1nc2cc(-c3cnc(N4CCC(CC)(C(=O)O)CC4)nc3)cc(-c3ccccn3)c2s1"
  metric: "MIC"
  endpoint-value: "0.06 µg/mL"
- compound: "CCNC(=O)Nc1nc2cc(-c3cnc([C@@H](O)[C@H](O)C(F)(F)F)nc3)cc(-c3ccccn3)c2s1 (racemic)"
  metric: "MIC"
  endpoint-value: "0.06 µg/mL"
- compound: "CCNC(=O)Nc1nc2cc(-c3cnc(C(C)(C)O)nc3)cc(-c3cc(CNC4CC4)ccn3)c2s1"
  metric: "MIC"
  endpoint-value: "0.12 µg/mL"
- compound: "CCNC(=O)Nc1nc2cc(-c3cnc(C(O)CC)nc3)cc(-c3ccccn3)c2s1 (racemic)"
  metric: "MIC"
  endpoint-value: "0.06 µg/mL"
- compound: "CCNC(=O)Nc1nc2cc(-c3cnc(C(C)(C)O)nc3)cc(-c3cc(CN4CCCC4)ccn3)c2s1"
  metric: "MIC"
  endpoint-value: "0.5 µg/mL"
- compound: "CCNC(=O)Nc1nc2cc(-c3cnc(C(C)(C)O)nc3)cc(-c3ccccn3)c2s1"
  metric: "MIC"
  endpoint-value: "0.06 µg/mL"
- compound: "CCNC(=O)Nc1nc2cc(-c3cnc(C(O)CN4CCOCC4)nc3)cc(-c3ccccn3)c2s1 (racemic)"
  metric: "MIC"
  endpoint-value: "0.12 µg/mL"
- compound: "CCNC(=O)Nc1nc2cc(-c3cnc(C(C)(C)O)nc3)cc(-c3cc(CN4CC[C@H](F)C4)ccn3)c2s1"
  metric: "MIC"
  endpoint-value: "0.12 µg/mL"
- compound: "CCNC(=O)Nc1nc2cc(-c3cnc(C(C)(C)O)nc3)cc(-c3cc(CN4CCC(C)(O)C4)ccn3)c2s1 (centres undefined)"
  metric: "MIC"
  endpoint-value: "0.5 µg/mL"
- compound: "CCNC(=O)Nc1nc2cc(-c3cnc(C(C)(C)O)nc3)cc(-c3cc(CN4CCC(F)(F)C4)ccn3)c2s1"
  metric: "MIC"
  endpoint-value: "0.06 µg/mL"

Find the measured MIC: item CCNC(=O)Nc1nc2cc(-c3cnc(C(O)C4CC4)nc3)cc(-c3ccccn3)c2s1 (racemic) , target or system Staphylococcus aureus.
0.06 µg/mL

Next record, please: CCNC(=O)Nc1nc2cc(-c3cnc(C4(O)CNC4)nc3)cc(-c3ccccn3)c2s1
> 16 µg/mL

What do you get for CCNC(=O)Nc1nc2cc(-c3cnc(C(C)(C)O)nc3)cc(-c3cc(CN4CC[C@@H](O)C4)ccn3)c2s1 ?
0.5 µg/mL

Check CCNC(=O)Nc1nc2cc(-c3cnc(C(O)CO)nc3)cc(-c3ccccn3)c2s1 (racemic) too.
0.12 µg/mL

Same lookup for CCNC(=O)Nc1nc2cc(-c3cnc(C4(O)CCOCC4)nc3)cc(-c3ccccn3)c2s1 , please.
0.06 µg/mL

What about this compound? CCNC(=O)Nc1nc2cc(-c3cnc(C4(O)CCCC4)nc3)cc(-c3ccccn3)c2s1
0.03 µg/mL
